# target.or.test.system: PPARγ (Homo sapiens, UniProt P37231)
# Construct: amino acids 176-478 of PPARγ1; GST (N)
# Sequence (P37231 204-505 limits assumed): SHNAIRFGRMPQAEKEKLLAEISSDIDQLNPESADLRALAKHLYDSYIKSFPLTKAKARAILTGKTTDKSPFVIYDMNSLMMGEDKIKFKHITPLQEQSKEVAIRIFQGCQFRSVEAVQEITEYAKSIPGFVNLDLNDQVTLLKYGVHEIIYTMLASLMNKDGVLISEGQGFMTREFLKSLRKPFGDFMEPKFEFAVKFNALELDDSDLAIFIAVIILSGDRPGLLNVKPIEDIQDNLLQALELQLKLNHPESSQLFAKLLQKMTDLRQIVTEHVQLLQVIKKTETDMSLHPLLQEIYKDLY
# Sequence (Q92793 1-453 partner limits assumed): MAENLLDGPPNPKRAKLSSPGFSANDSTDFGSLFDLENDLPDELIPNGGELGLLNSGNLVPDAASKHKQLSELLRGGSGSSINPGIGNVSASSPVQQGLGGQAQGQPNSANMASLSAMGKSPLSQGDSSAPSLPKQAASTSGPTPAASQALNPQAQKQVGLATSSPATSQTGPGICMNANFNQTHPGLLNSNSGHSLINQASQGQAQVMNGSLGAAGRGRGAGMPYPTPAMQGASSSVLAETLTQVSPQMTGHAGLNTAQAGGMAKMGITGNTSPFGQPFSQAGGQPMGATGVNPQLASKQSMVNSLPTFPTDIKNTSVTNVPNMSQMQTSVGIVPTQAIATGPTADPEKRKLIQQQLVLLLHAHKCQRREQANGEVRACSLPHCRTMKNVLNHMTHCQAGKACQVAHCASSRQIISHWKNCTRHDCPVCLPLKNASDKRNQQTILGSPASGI
# experiment: Titration of known PPARγ agonists in the CBP/PPARγ FRET assay (FIG. 5)
# assay.context: derived from FIG. 5; agonist-induced CBP-PPARγ FRET
measure: EC50 (nM)
Only the number, expressed in nM, is required.

Asked: Input Cc1oc(-c2ccccc2)nc1C(O)COc1ccc(CC2SC(=O)NC2=O)cc1 (stereo not shown) [AD5075] , output reported EC50.
Given back: 8
